Target: human β3 adrenergic receptor (Homo sapiens, UniProt P13945)
Construct: stably transfected with the cloned β-adrenergic receptor (β1, β2 or β3); expressed in transfected cells; host or cells: Chinese hamster ovary (CHO) cells, stably transfected
Sequence (P13945 whole entry): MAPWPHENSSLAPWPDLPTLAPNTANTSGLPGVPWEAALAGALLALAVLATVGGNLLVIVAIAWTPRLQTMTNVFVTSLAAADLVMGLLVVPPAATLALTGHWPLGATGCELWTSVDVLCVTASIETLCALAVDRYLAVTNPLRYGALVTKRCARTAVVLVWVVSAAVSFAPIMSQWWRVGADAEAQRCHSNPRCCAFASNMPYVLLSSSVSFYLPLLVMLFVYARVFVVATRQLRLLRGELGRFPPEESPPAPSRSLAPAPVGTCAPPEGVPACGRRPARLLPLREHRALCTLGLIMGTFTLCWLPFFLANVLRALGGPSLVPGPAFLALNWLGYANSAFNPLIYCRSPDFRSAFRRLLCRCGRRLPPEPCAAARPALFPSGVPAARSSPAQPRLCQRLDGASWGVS
Assay: Functional assay: cAMP production (LANCE TR-FRET) in CHO cells stably transfected with cloned β3 adrenergic receptor
Type: cell-based
Conditions: Table 2; cAMP production, CHO cells expressing human β3 AR; read-out: Human β3 functional
Experimental: Functional Assay: cAMP production in response to ligand is measured according to Barton, et al. (1991, Agonist-induced desensitization of D2 dopamine receptors in human Y-79 retinoblastoma cells. Mol. Pharmacal. v3229:650-658) modified as follows, cAMP production is measured using a homogenous time-resolved fluorescence resonance energy transfer immunoassay (LANCE™, Perkin Elmer) according to the manufacture's instructions. […]
endpoint-name: EC50

// worked examples, EC50 included
# molecule, EC50
rows = [
    ("O=C(Cc1nnc(Cc2ccccc2)[nH]1)Nc1ccc(CC2CC[C@H]([C@H](O)c3cccnc3)N2)cc1 (some centres unmarked) [Example 26]", "11 to 100 nM"),
    ("Cc1nc2ccccc2c(=O)n1CC(=O)Nc1ccc(CC2CC[C@H]([C@H](O)c3cccnc3)N2)cc1 (some centres unmarked) [Example 11]", "1 to 10 nM"),
    ("NC(=O)c1ccn(CC(=O)Nc2ccc(CC3CC[C@H]([C@H](O)c4cccnc4)N3)cc2)n1 (some centres unmarked) [Example 89]", "11 to 100 nM"),
    ("O=C(Cn1cccnc1=O)Nc1ccc(CC2CC[C@H]([C@H](O)c3cccnc3)N2)cc1 (some centres unmarked) [Example 60]", "1 to 10 nM"),
    ("O=C(CN1CCCCC1=O)Nc1ccc(CC2CC[C@H]([C@H](O)c3cccnc3)N2)cc1 (some centres unmarked) [Example 42]", "11 to 100 nM"),
]

**Q:** Any idea what EC50 was measured for Cc1nc(CC(=O)Nc2ccc(CC3CC[C@H]([C@H](O)c4cccnc4)N3)cc2)no1 (some centres unmarked) [Example 80] ?
**A:** 11 to 100 nM

**Q:** Any idea what EC50 was measured for O=C(Nc1ccc(CC2CC[C@H]([C@H](O)c3cccnc3)N2)cc1)c1ccccc1C1CCCCC1 (some centres unmarked) [Example 36] ?
**A:** 101 to 1000 nM

**Q:** Any idea what EC50 was measured for O=C(Cn1ccncc1=O)Nc1ccc(CC2CC[C@H]([C@H](O)c3cccnc3)N2)cc1 (some centres unmarked) [Example 63] ?
**A:** 11 to 100 nM

====

The following compounds are listed with their measured pEC50 values.
target: human β3 adrenergic receptor (Homo sapiens, UniProt P13945); construct: stably transfected with the cloned β-adrenergic receptor (β1, β2 or β3); expressed in transfected cells; host or cells: Chinese hamster ovary (CHO) cells, stably transfected; test: Functional assay: cAMP production (LANCE TR-FRET) in CHO cells stably transfected with cloned β3 adrenergic receptor; type: cell-based; conditions: Table 2; cAMP production, CHO cells expressing human β3 AR; read-out: Human β3 functional
pEC50: −log10 of the molar value.

// worked examples, pEC50 included
# compound, endpoint-name, result
measured = [
    ("Cc1cccc2c(=O)n(CC(=O)Nc3ccc(CC4CC[C@H]([C@H](O)c5cccnc5)N4)cc3)cnc12 (some centres unmarked)", "pEC50", "8.00 to 9.00"),
    ("O=C(Cc1nnc(-c2cscn2)[nH]1)Nc1ccc(CC2CC[C@H]([C@H](O)c3cccnc3)N2)cc1 (some centres unmarked)", "pEC50", "8.00 to 9.00"),
    ("CN1CCN(CC(=O)Nc2ccc(CC3CC[C@H]([C@H](O)c4cccnc4)N3)cc2)C1=O (some centres unmarked)", "pEC50", "6.00 to 7.00"),
]

**Q:** Any idea what pEC50 was measured for O=C(Cn1cnc2ccccc2c1=O)Nc1ccc(CC2CC[C@H]([C@H](O)c3cccnc3)N2)cc1 (single isomer, unassigned) [Example 12] ?
**A:** 8.00 to 9.00

**Q:** Any idea what pEC50 was measured for NC(=O)c1cnn(CC(=O)Nc2ccc(CC3CC[C@H]([C@H](O)c4cccnc4)N3)cc2)c1 (some centres unmarked) ?
**A:** 7.00 to 7.96

The origin of these recorded values is patent US8501786B2.
